Reference for the values: ChEMBL document CHEMBL4316590

Test system: MT4
Test: Cytotoxicity against human MT4 cells assessed as reduction in cell viability after 3 days by CellTiter-Glo luminescent assay
Type: cell-based
Settings: mt4, 72 h
Here, each record is paired with measured CC50 data.

Sample records with CC50:
>>> readoutvalue("CC(=O)O[C@H]1[C@@H]2O[C@@]3(C(C)(C)O[C@H]4O[C@H](CO)[C@@H](O)[C@H](O)[C@H]4O)CC[C@](C)(O3)[C@@H]2[C@@]2(C)CC[C@@]34C[C@@]35CC[C@H](O[C@@H]3OC[C@@H](O)[C@H](O)[C@H]3O)C(C)(C)[C@@H]5CC[C@H]4[C@]12C")
"35.4 µM"
>>> readoutvalue("CC(=O)O[C@H]1[C@@H](OC(C)=O)[C@@]2(C)[C@@H]3CC[C@H]4C(C)(C)[C@@H](OC(=O)CCC(=O)O)CC[C@@]45C[C@@]35CC[C@@]23CO[C@@]2(C(C)(C)O)CC[C@](C)(O2)[C@@H]13")
"> 40 µM"
>>> readoutvalue("CC(=O)O[C@H]1[C@@H](OC(C)=O)[C@@]2(C)[C@@H]3CC[C@H]4C(C)(C)[C@@H](OC(=O)CC5(CC(=O)O)CCCC5)CC[C@@]45C[C@@]35CC[C@@]23CO[C@@]2(C(C)(C)O)CC[C@](C)(O2)[C@@H]13")
"> 20 µM"

Next up:
Entry `CC(=O)O[C@H]1[C@@H](OC(C)=O)[C@@]2(C)[C@@H]3CC[C@H]4C(C)(C)[C@@H](OC(=O)COCC(=O)O)CC[C@@]45C[C@@]35CC[C@@]23CO[C@@]2(C(C)(C)O)CC[C@](C)(O2)[C@@H]13` under MT4 had CC50 of > 5 µM
